# Tested on: FB
# measurement.protocol: Euclidean distance of Cell Painting phenotypic profile (signed KS, 77 features) to DMSO centroid (dimensionless distance); 5 or 10 uM (library dependent); higher = stronger phenotypic change vs DMSO (phenoactivity)
# recorded.conditions: 48 h
# Euclidean distance per entry
Form rule: numeric answer, no unit written next to it.

compound="COc1c2occc2c(OC)c2c(=O)cc(C)oc12 [Khellin]" obs_value=0.769
compound="O=C(O)C1(C(=O)O)CCC1.[NH2-].[NH2-].[Pt+2] [Carboplatin]" obs_value=2.23
compound="Oc1c(Cl)cc(Cl)c2cccnc12 [Chloroxine]" obs_value=1.48
compound=CC(C)CCNc1ncccc1C(=O)N1CCN(Cc2ccccc2)CC1 obs_value=0.894
compound=COC1CCN(C(=O)c2cc(Cc3n[nH]c(=O)c4ccccc34)ccc2F)CC1 obs_value=1.5
compound=COc1cc2ncnc(Sc3nnc(C)s3)c2cc1OC obs_value=1.09
compound="C[C@H](CCC(=O)O)[C@H]1CC[C@H]2[C@@H]3CC[C@@H]4C[C@H](O)CC[C@]4(C)[C@H]3C[C@H](O)[C@]12C [Deoxycholic acid]" obs_value=0.74
compound="CCCCc1oc2ccc(NS(C)(=O)=O)cc2c1C(=O)c1ccc(OCCCN(CCCC)CCCC)cc1 [Dronedarone]" obs_value=3.39
compound=COc1ccc(Cl)cc1NC(=O)Nc1cc(C)nc2ccccc12 obs_value=1.02
compound="CN(C)c1ccc(C(=C2C=CC(=[N+](C)C)C=C2)c2ccc(N(C)C)cc2)cc1 [Crystal Violet]" obs_value=2.46

QUERY: Quick check: Euclidean distance of C[C@@H](O)[C@H]1C(=O)N2C(C(=O)O)=C(SCCNC=N)C[C@H]12 [Imipenem] ?
RESULT: 0.737

QUERY: Entry Cc1cc(Nc2cc(N3CCN(C)CC3)nc(/C=C/c3ccccc3)n2)n[nH]1 [ENMD-2076 L-(+)-Tartaric acid] has what Euclidean distance?
RESULT: 3.64

QUERY: What does the data say about its Euclidean distance? Entry: COC(=O)N[C@H](C(=O)N1CC2(CC2)C[C@H]1c1nc(-c2ccc3c(c2)C(F)(F)c2cc(-c4ccc5[nH]c([C@@H]6[C@H]7CC[C@H](C7)N6C(=O)[C@@H](NC(=O)OC)C(C)C)nc5c4)ccc2-3)c[nH]1)C(C)C [Ledipasvir (GS5885)]
RESULT: 1.94

QUERY: State the recorded Euclidean distance for this entry: Nc1cc(F)ccc1NC(=O)c1ccc(CNC(=O)/C=C/c2cccnc2)cc1 [Tucidinostat (Chidamide)]
RESULT: 3.31

QUERY: What value of measured Euclidean distance is listed for NS(=O)(=O)c1cc(C(=O)O)c(NCc2ccco2)cc1Cl [Furosemide] ?
RESULT: 1.25

QUERY: Please give the measured Euclidean distance for this compound: Nc1nc2n[nH]nc2c(=O)[nH]1 [Azaguanine-8]
RESULT: 1.27

QUERY: Which Euclidean distance value is on record for N#Cc1cc(-c2n[nH]c(-c3ccncc3)n2)ccn1 [Topiroxostat] ?
RESULT: 1.16

====

# Test system: HEPG2
# measurement.protocol: Euclidean distance of Cell Painting phenotypic profile (signed KS, 77 features) to DMSO centroid (dimensionless distance); 5 or 10 uM (library dependent); higher = stronger phenotypic change vs DMSO (phenoactivity)
# recorded.conditions: 48 h
Structures can show the parent of a compound that is named as a salt.
# Euclidean distance >= 1 gives 1, anything below gives 0

Completed entries (count: 4):
compound="CCC1=C[C@@H]2CN(C1)Cc1c([nH]c3ccccc13)[C@@](C(=O)OC)(c1cc3c(cc1OC)N(C)[C@H]1[C@@](O)(C(=O)OC)[C@H](OC(C)=O)[C@]4(CC)C=CCN5CC[C@]31[C@@H]54)C2 [Vinorelbine Tartrate]" assigned_category=1
compound=CCn1cc(C(=O)O)c(=O)c2cnc(N3CCNCC3)nc21 assigned_category=0
compound="COC(=O)CCC(=O)CN [Methyl Aminolevulinate Hydrochloride]" assigned_category=0
compound=CC(C)(CO)[C@@H](O)C(=O)NCCC(=O)O assigned_category=0

QUERY: Record CCCOC(C(=O)OC1CCN(C)CC1)(c1ccccc1)c1ccccc1 [Propiverine hydrochloride] ; criterion: Euclidean distance no lower than 1. Met?
RESULT: 1

QUERY: Decide: is the reported value of Euclidean distance for CC(NCCc1ccc(O)cc1)C(O)c1ccc(O)cc1 (stereo unspecified) [Ritodrine HCl] equal to or greater than 1?
RESULT: 0

QUERY: Does CCc1nn(CCCN2CCN(c3cccc(Cl)c3)CC2)c(=O)n1CCOc1ccccc1 [Nefazodone hydrochloride] have a reported Euclidean distance of at least 1?
RESULT: 1

QUERY: Decide: is the reported value of Euclidean distance for Cc1csc(-c2nnc(Nc3ccc(Oc4ncccc4-c4ccnc(N)n4)cc3)c3ccccc23)c1 equal to or greater than 1?
RESULT: 1

QUERY: Is it the case that COc1cc(C)c(/C=C/C(C)=C/C=C/C(C)=C/C(=O)O)c(C)c1C has Euclidean distance reaching or exceeding 1?
RESULT: 1

====

# System: FB
# measurement.protocol: Euclidean distance of Cell Painting phenotypic profile (signed KS, 77 features) to DMSO centroid (dimensionless distance); 5 or 10 uM (library dependent); higher = stronger phenotypic change vs DMSO (phenoactivity)
# recorded.conditions: 48 h
Counter-ions that a name gives are not always drawn.
property.name: Euclidean distance

compound=O=c1ccc2cc3ccoc3cc2o1 property_name="Euclidean distance" obs_value=1.16
compound=COc1cc2c(cc1OC)CN(CCc1ccc(NC(=O)c3cc(OC)c(OC)cc3NC(=O)c3cnc4ccccc4c3)cc1)CC2 property_name="Euclidean distance" obs_value=1.17
compound=CC(=O)Nc1cccc2c1c(Sc1ccc(Cl)cc1)c(C)n2CC(=O)O property_name="Euclidean distance" obs_value=0.772
compound=O=C(NCc1c(F)cc(F)cc1F)c1cn2c(c(O)c1=O)C(=O)N1[C@H]3CC[C@H](C3)O[C@@H]1C2 property_name="Euclidean distance" obs_value=2.16
compound="CCCCNC(=O)NS(=O)(=O)c1ccc(C)cc1 [Tolbutamide]" property_name="Euclidean distance" obs_value=0.823

QUERY: Could you share what Euclidean distance was measured for Cc1c(-c2ccccc2)oc2c(C(=O)OCCN3CCCCC3)cccc2c1=O [Flavoxate HCl] , tested on FB?
RESULT: 2.91

QUERY: Query for FB: what Euclidean distance does the record show for N#CC(c1ccnc(OCc2ccc(CN3CCOCC3)cc2)n1)c1nc2ccccc2s1 (stereo not drawn) ?
RESULT: 1.81

QUERY: Fill in the recorded Euclidean distance for this compound, with FB as test system: Cc1nc2n(c(=O)c1CCN1CCC(c3noc4cc(F)ccc34)CC1)CCCC2O (stereo not drawn)
RESULT: 0.783

QUERY: Observed Euclidean distance on FB for Cc1cc(C(C)(C)C)c(O)c(C)c1CC1=NCCN1 [Oxymetazoline HCl] , please.
RESULT: 1.1

QUERY: # returns recorded Euclidean distance (system: FB) for CCC(=O)OCC(=O)[C@@]1(OC(=O)CC)[C@@H](C)C[C@H]2[C@@H]3CCC4=CC(=O)C=C[C@]4(C)[C@@]3(F)[C@@H](O)C[C@@]21C [Betamethasone Dipropionate]
RESULT: 2.18

QUERY: Entry CCCCCCCCCCCCCCCCOP(=O)([O-])OCC[N+](C)(C)C , system FB: what Euclidean distance was measured?
RESULT: 1.39

QUERY: Record lookup: for FB, what Euclidean distance belongs to CC(C)(C)NCC(O)COc1cccc2c1CCC(=O)N2 (stereo not drawn) [Carteolol HCl] ?
RESULT: 1.22

QUERY: Lab request: please report Euclidean distance under test system FB for CC(C)N(CCCNC(=O)Nc1ccc(C(C)(C)C)cc1)C[C@H]1O[C@@H](n2cc(Br)c3c(N)ncnc32)[C@H](O)[C@@H]1O
RESULT: 1.58

QUERY: Please state recorded Euclidean distance (tested on FB) of Nc1[nH]cnc2ncnc1-2 [Adenine sulfate]
RESULT: 0.763

QUERY: Recall the recorded Euclidean distance for CCc1nc(N)nc(N)c1-c1ccc(Cl)cc1 with FB and state it.
RESULT: 0.96

====

# Test system: FB
# measurement.protocol: Euclidean distance of Cell Painting phenotypic profile (signed KS, 77 features) to DMSO centroid (dimensionless distance); 5 or 10 uM (library dependent); higher = stronger phenotypic change vs DMSO (phenoactivity)
# recorded.conditions: 48 h
The following compounds are shown together with reported Euclidean distance values.

Below: 5 compounds and their reported Euclidean distance.
compound="CC1(C)[C@@H](O)CC[C@]2(C)[C@H]3C(=O)C=C4[C@@H]5C[C@@](C)(C(=O)O)CC[C@]5(C)CC[C@@]4(C)[C@]3(C)CC[C@@H]12 [Enoxolone]" obs_value=0.901
compound=CN(C)CC(=O)Nc1ccc2[nH]c(=O)c3ccccc3c2c1 obs_value=1.3
compound="CCCCCCCCCCCCCCCCCCOCC(O)CO (configuration not stated) [Batyl alcohol]" obs_value=1.18
compound="CC(=O)c1ccc(S(=O)(=O)NC(=O)NC2CCCCC2)cc1 [Acetohexamide]" obs_value=1.19
compound="Cc1ccccc1C(=O)Nc1ccc(C(=O)N2CCCC(O)c3cc(Cl)ccc32)c(C)c1 (configuration not stated) [Tolvaptan]" obs_value=1.14

QUERY: Given the entry CC1=C(C(=O)OC(C)C)C(c2cccc([N+](=O)[O-])c2)C(C(=O)OC2CN(C(c3ccccc3)c3ccccc3)C2)=C(N)N1 (configuration not stated) [Azelnidipine] , report its measured Euclidean distance.
RESULT: 1.17

QUERY: I would be grateful if you could share the reported Euclidean distance for Cn1cnc([N+](=O)[O-])c1Sc1ncnc2[nH]cnc12 [Azathioprine] .
RESULT: 1.04
